TARGET_OR_SYSTEM: Sodium-dependent dopamine transporter (Rattus norvegicus)
Sequence (P23977 whole entry): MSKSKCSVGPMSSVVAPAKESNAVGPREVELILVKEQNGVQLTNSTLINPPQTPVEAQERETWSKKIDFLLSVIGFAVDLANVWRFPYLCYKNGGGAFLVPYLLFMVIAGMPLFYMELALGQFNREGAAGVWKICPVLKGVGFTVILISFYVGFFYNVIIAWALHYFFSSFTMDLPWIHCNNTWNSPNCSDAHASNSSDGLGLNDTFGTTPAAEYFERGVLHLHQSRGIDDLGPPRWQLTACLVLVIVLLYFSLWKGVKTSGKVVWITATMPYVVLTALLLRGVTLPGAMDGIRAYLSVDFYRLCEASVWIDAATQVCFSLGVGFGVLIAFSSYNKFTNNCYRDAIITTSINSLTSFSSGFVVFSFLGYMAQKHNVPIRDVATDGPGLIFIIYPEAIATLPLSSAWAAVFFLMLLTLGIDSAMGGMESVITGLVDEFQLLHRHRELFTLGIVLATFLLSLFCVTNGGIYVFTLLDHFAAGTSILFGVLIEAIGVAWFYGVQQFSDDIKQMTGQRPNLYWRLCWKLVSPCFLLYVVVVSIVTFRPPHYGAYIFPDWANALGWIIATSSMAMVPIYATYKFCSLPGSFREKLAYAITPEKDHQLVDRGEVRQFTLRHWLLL
TEST: Displacement of [125I]RTI-55 dopamine transporter binding in rat striatal membrane
pIC50: −log10 of the molar value.
Label Fulfilled when pIC50 is at or above 7; otherwise label Not fulfilled.

{"COMPOUND": "Fc1ccc(CN2CCC(OC(c3ccc(Cl)cc3)c3ccc(Cl)cc3)CC2)cc1", "ANSWER_LABEL": "Fulfilled"}
{"COMPOUND": "CC(OC1CCN(C)CC1)c1ccc(F)cc1 (configuration not stated)", "ANSWER_LABEL": "Not fulfilled"}
{"COMPOUND": "CN1CCC(OC(c2ccc(Cl)cc2)c2ccc(Cl)cc2)CC1", "ANSWER_LABEL": "Fulfilled"}
{"COMPOUND": "Cc1cccc(C(OC2CCN(C)CC2)c2ccccc2)c1 (configuration not stated)", "ANSWER_LABEL": "Not fulfilled"}
{"COMPOUND": "CCCCN1CCC(OC(c2ccc(Cl)cc2)c2ccc(Cl)cc2)CC1", "ANSWER_LABEL": "Fulfilled"}
{"COMPOUND": "CN1CCC(OC(c2ccccc2)c2ccc(F)cc2)CC1 (configuration not stated)", "ANSWER_LABEL": "Not fulfilled"}

Numbers sourced from ChEMBL document CHEMBL1143485.
